- Test details: chemical genetic growth profiling, strain panel (AID 1159580);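 also: tested at 20 µM; growth read once vehicle control cultures reached saturation at 30 °C; 1 = growth at the plate median or of vehicle wells; lower values mean less growth of the strain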
- Condition summary: S. cerevisiae deletion strains, growth OD, locus YDR334W, strain swr1, hits give low values
Screen size: about 5,500 compounds; about 2,000 (36%) were called active. About 18% were inconclusive and are not listed. The list shows a part of the results.
Measured quantity: normalized growth

| Compound | Readout value |
| --- | --- |
| Nc1c2c(nc3ccccc13)CCCC2O (stereo not drawn) | 1.01 (inactive) |
| O=C(Nc1ccc(C(=O)O)c(O)c1)c1ccccc1 | 0.942 (inactive) |
| Nc1ccc(S(=O)(=O)c2ccc(N)cc2)cc1 | 0.986 (inactive) |
| C/C=C(/C)C(=O)OC1CCC2(C)C3CCC4C5(O)CC(O)C6(O)C(CN7CC(C)CCC7C6(C)O)C5(O)CC42OC13O (stereo not drawn) | 0.977 (inactive) |
| CCOc1ccc2nc3cc(N)ccc3c(N)c2c1 | 1.03 (inactive) |
| COc1ccc2c3c([nH]c2c1)C(C)=NCC3 | 1.01 (inactive) |
| O=C1c2c(O)cccc2Cc2cccc(O)c21 | 0.936 (inactive) |
| COc1cc(C(=O)NCCCCCC(=O)O)cc(OC)c1OC | 0.935 (inactive) |
| CC1(C)CC[C@]2(C)CC[C@]3(C)C(=CCC4[C@@]5(C)CC[C@H](O)C(C)(C)C5CC[C@]43C)C2C1 (stereo partly drawn) | 0.996 (inactive) |
| Nc1c2c(nc3ccccc13)CCCC2 | 0.974 (inactive) |
| CC(C)(Sc1cc(C(C)(C)C)c(O)c(C(C)(C)C)c1)Sc1cc(C(C)(C)C)c(O)c(C(C)(C)C)c1 | 1.02 (inactive) |
| CC1=NS(=O)(=O)c2cc(Cl)ccc2N1 | 0.936 (inactive) |
| NNc1nncc2ccccc12 | 0.986 (inactive) |

Origin of measurements: PubChem BioAssay AID1159580
